All values here come from patent US9120749B2.

- Test system: HT-1197 cells
- Experimental details: Cell-based assay: anti-proliferative activity, Cell Counting Kit-8, 72 hours (HT-1197, negative control without MELK expression)
- Measurement conditions: Homo sapiens, HT1197, 72 h, HT1197 cells (negative control, no MELK expression), 72 hours
Structures can show the parent of a compound that is named as a salt.
Consider the cut-off 5 µM. If the recorded IC50 is strictly smaller, the label is 1; if not, the label is 0.

Query block: Does the reported IC50 of CC(=O)c1cnc2ccc(-c3cc(F)c(O)c(Cl)c3)cc2c1NC1CCN(CCN(C)C)CC1 [Example 821] stay below 5 µM?
Result block: 1

Query block: Does the reported IC50 of COc1cc(-c2ccc3ncc(C(=O)C4CC4)c(Nc4ccc(OCCN(C)C)nc4)c3c2)cc(Cl)c1O [Example 712] stay below 5 µM?
Result block: 0

Query block: Does the reported IC50 of CN(C)CC1CCN(c2c(C(=O)C3CC3)cnc3ccc(-c4ccc5c(c4)CC(=O)N5)cc23)CC1 [Example 474] stay below 5 µM?
Result block: 0

Query block: Does the reported IC50 of CN(C)CC(=O)N1CCN(c2c(C(=O)C3CC3)cnc3ccc(-c4ccc(O)c(Cl)c4)cc23)CC1 [Example 441] stay below 5 µM?
Result block: 0

Query block: Does the reported IC50 of CC(=O)c1cnc2ccc(-c3cc(F)c(O)c(Cl)c3)cc2c1N[C@H]1CC[C@H](CN2CCNCC2)CC1 [Example 783, dihydrochloride] stay below 5 µM?
Result block: 1

Others:
Query block: Does the reported IC50 of CC(=O)c1cnc2ccc(-c3cc(F)c(O)c(Cl)c3)cc2c1N[C@@H]1CC[C@@H](CN(C)C)C1 [Example 717] stay below 5 µM?
Result block: 1

Query block: Does the reported IC50 of COc1cc(-c2ccc3ncc(C(=O)C4CC4)c(Nc4ccc(CN5CCN(C)CC5)nc4)c3c2)cc(Cl)c1O [Example 683] stay below 5 µM?
Result block: 0

Query block: Does the reported IC50 of COc1cc(-c2ccc3ncc(C(=O)C4CC4)c(Nc4ccc(CN(C)C)cn4)c3c2)cc(Cl)c1O [Example 429] stay below 5 µM?
Result block: 0

Query block: Does the reported IC50 of CC(=O)c1cnc2ccc(-c3cc(Cl)c(O)c(Cl)c3)cc2c1NC1CCCN(CCN(C)C)C1 (stereo not drawn) [Example 850] stay below 5 µM?
Result block: 1

Query block: Does the reported IC50 of O=C(c1cnc2ccc(-c3cc(Cl)c(O)c(Cl)c3)cc2c1NC1CCC(N2CCC(F)(F)C2)CC1)C1CC1 (stereo not drawn) [Example 664] stay below 5 µM?
Result block: 0

Query block: Does the reported IC50 of CNC1CCCN(c2ccc(Nc3c(C(C)=O)cnc4ccc(-c5cc(Cl)c(O)c(Cl)c5)cc34)cn2)C1 (stereo not drawn) [Example 806, trihydrochloride] stay below 5 µM?
Result block: 1

Query block: Does the reported IC50 of CN1CCN(Cc2ccc(Nc3c(C(=O)C4CC4)cnc4ccc(-c5cc(Cl)c(O)c(Cl)c5)cc34)cc2)CC1 [Example 397] stay below 5 µM?
Result block: 0

Query block: Does the reported IC50 of O=C(c1cnc2ccc(-c3cc(F)c(O)c(Cl)c3)cc2c1Nc1ccc(N2CCNCC2)nc1)C1CC1 [Example 425] stay below 5 µM?
Result block: 1

Query block: Does the reported IC50 of O=C(c1cnc2ccc(-c3cc(Cl)c(O)c(Cl)c3)cc2c1-c1ccc(OCCN2CCCC2)cc1)C1CC1 [Example 485] stay below 5 µM?
Result block: 0

Query block: Does the reported IC50 of O=C(c1cnc2ccc(-c3cc(F)c(O)c(Cl)c3)cc2c1Nc1ccc(NCCO)nc1)C1CC1 [Example 679] stay below 5 µM?
Result block: 1
